Target: Tyrosine-protein kinase SYK [355-635] (Homo sapiens, UniProt P43405)
Construct: 355-635
Assay: SYK assay_HTRF
Observation type: pIC50
Schema: pIC50 number; meaning minus log10 of the concentration expressed in molar units.

The following compounds have reported results that may help.
[[record]]
compound = "COCCCN(c1nc(Nc2ccc3c(c2)COC(=O)N3)ncc1F)c1cccc2[nH]ncc12 [GTC000273A]"
observation_type = "pIC50"
recorded_value = 8.17

[[record]]
compound = "CCN(c1nc(Nc2cccc(S(=O)(=O)NC3CC3)c2)ncc1F)c1cccc2[nH]ncc12 [GTC000342A]"
observation_type = "pIC50"
recorded_value = 7.47

[[record]]
compound = "CN1CCN(C(=O)c2ccc(Nc3nccc(Nc4cccc5[nH]ncc45)n3)cc2)CC1 [GTC000185A]"
observation_type = "pIC50"
recorded_value = 5.38


So what does the record say about pIC50 for OCCCCN(c1ccnc(Nc2ccc3nn[nH]c3c2)n1)c1cccc2[nH]ncc12 [GTC000275A] ?
8.22

###

Biological target: Tyrosine-protein kinase SYK [355-635] (Homo sapiens, UniProt P43405)
We'd kindly ask you to apply these IC50 classes: bottom range = under 0.007 µM, center range = from 0.007 µM up to 0.03 µM, top range = 0.03 µM and over

Would you please look over these solved cases?
[[record]]
compound = "COCCCN(c1ccnc(Nc2ccc3c(c2)COC(=O)N3)n1)c1cccc2[nH]ncc12 [GTC000238A]"
target_desc = "Tyrosine-protein kinase SYK [355-635] (Homo sapiens, UniProt P43405)"
group_label = "bottom range"

[[record]]
compound = "CNC(=O)Cc1ccc(Nc2nccc(Nc3cccc4[nH]ncc34)n2)cc1 [GTC000218A]"
target_desc = "Tyrosine-protein kinase SYK [355-635] (Homo sapiens, UniProt P43405)"
group_label = "top range"

[[record]]
compound = "O=S1(=O)NCc2ccc(Nc3nccc(N(C[C@@H](O)CO)c4cccc5[nH]ncc45)n3)cc21 [GTC000304A]"
target_desc = "Tyrosine-protein kinase SYK [355-635] (Homo sapiens, UniProt P43405)"
group_label = "center range"

[[record]]
compound = "CCCN(c1nc(Nc2ccc3c(c2)S(=O)(=O)CC3)ncc1F)c1cccc2[nH]ncc12 [GTC000350A]"
target_desc = "Tyrosine-protein kinase SYK [355-635] (Homo sapiens, UniProt P43405)"
group_label = "top range"

[[record]]
compound = "CCN(c1nc(Nc2ccc(CCO)cc2)ncc1F)c1cccc2[nH]ncc12 [GTC000333A]"
target_desc = "Tyrosine-protein kinase SYK [355-635] (Homo sapiens, UniProt P43405)"
group_label = "center range"


Class (by measured IC50) for CN(c1nc(Nc2ccc3[nH]c(=O)[nH]c3c2)ncc1F)c1cccc2[nH]ncc12 [GTC000264A]
bottom range

Could you tell me which band O=C1CCCN1CCCNS(=O)(=O)Cc1ccc(Nc2nccc(Nc3cccc4[nH]ncc34)n2)cc1 [GTC000202A] belongs to?
top range

Hi there! Could you help me figure out the category for O=S(=O)(Cc1ccc(Nc2nccc(Nc3cccc4[nH]ncc34)n2)cc1)NCCCO [GTC000203A] please?
top range

Could you tell me which band Cn1ncc2ccc(Nc3nccc(N(CCCCO)c4cccc5[nH]ncc45)n3)cc21 [GTC000274A] belongs to?
bottom range

Textbook exercise: identify the category of the compound given here, Cc1cc(=O)[nH]c2ccc(Nc3nccc(Nc4cccc5[nH]ncc45)n3)cc12 [GTC000159A] , according to its measured value.
center range

###

For reference, IC50 measured on Tyrosine-protein kinase SYK [355-635] (Homo sapiens, UniProt P43405):
Respond with the bare value in µM.

[[record]]
molecule = "CCN(c1nc(Nc2ccc(C(=O)N3CCN(C)CC3)cc2)ncc1F)c1cccc2[nH]ncc12 [GTC000372A]"
recorded_value = 0.244

[[record]]
molecule = "O=S1(=O)NCc2ccc(Nc3nccc(N(CCO)c4cccc5[nH]ncc45)n3)cc21 [GTC000223A]"
recorded_value = 0.00345

[[record]]
molecule = "CCN(c1nc(Nc2ccc(N3CCN(C)CC3)cc2)ncc1F)c1cccc2[nH]ncc12 [GTC000363A]"
recorded_value = 0.105

[[record]]
molecule = "NC(=O)CN(c1nc(Nc2ccc3c(c2)S(=O)(=O)CC3)ncc1F)c1cccc2[nH]ncc12 [GTC000369A]"
recorded_value = 0.198

[[record]]
molecule = "CCN(c1nc(Nc2ccc(S(N)(=O)=O)cc2)ncc1F)c1cccc2[nH]ncc12 [GTC000261A]"
recorded_value = 0.00504

[[record]]
molecule = "CCN(c1nc(Nc2cccc(-c3noc(C)n3)c2)ncc1F)c1cccc2[nH]ncc12 [GTC000320A]"
recorded_value = 0.0214


So what IC50 did Cc1cc(=O)[nH]c2cc(Nc3nccc(Nc4cccc5[nH]ncc45)n3)ccc12 [GTC000109A] get with Tyrosine-protein kinase SYK [355-635] (Homo sapiens, UniProt P43405)?
0.0536

Entry O=C(Cc1ccc(Nc2nccc(Nc3cccc4[nH]ncc34)n2)cc1)Nc1cccc(Cl)c1 [GTC000213A] , system Tyrosine-protein kinase SYK [355-635] (Homo sapiens, UniProt P43405): what IC50 was measured?
1.39

Record Cn1ncc2ccc(Nc3nccc(N(CCCO)c4cccc5[nH]ncc45)n3)cc21 [GTC000270A] : what is its IC50 with Tyrosine-protein kinase SYK [355-635] (Homo sapiens, UniProt P43405)?
0.00695

Give the reported IC50 for COCCCN(c1nc(Nc2cccc(S(N)(=O)=O)c2)ncc1F)c1cccc2[nH]ncc12 [GTC000301A] (system: Tyrosine-protein kinase SYK [355-635] (Homo sapiens, UniProt P43405)).
0.0121

# query: IC50 | item O=S1(=O)CCc2ccc(Nc3ncc(F)c(N(CC4CCCO4)c4cccc5[nH]ncc45)n3)cc21 (configuration not stated) [GTC000278A] | system: Tyrosine-protein kinase SYK [355-635] (Homo sapiens, UniProt P43405)
0.00798

###

A collection of compounds and their measured pIC50
Target: Tyrosine-protein kinase SYK [355-635] (Homo sapiens)
Bear in mind: pIC50 is minus log10 of a mol/L concentration; give just that figure.

[[record]]
compound = "CS(=O)(=O)Cc1ccc(Nc2nccc(Nc3cccc4[nH]ncc34)n2)cc1 [GTC000207A]"
observation_type = "pIC50"
recorded_value = 6.63

[[record]]
compound = "O=C(Cc1ccc(Nc2nccc(Nc3cccc4[nH]ncc34)n2)cc1)Nc1ccc(Cl)cc1 [GTC000214A]"
observation_type = "pIC50"
recorded_value = 5.86

[[record]]
compound = "NCCCCCN(c1ccnc(Nc2ccc3[nH]c(=O)[nH]c3c2)n1)c1cccc2[nH]ncc12 [GTC000269A]"
observation_type = "pIC50"
recorded_value = 8.16


Requested field: pIC50. Item: Cc1ccc(S(=O)(=O)Nc2ccc(Nc3nccc(Nc4cccc5[nH]ncc45)n3)cc2)cc1 [GTC000220A]
6.04

###

As an illustration, consider measured IC50 for compounds on Tyrosine-protein kinase SYK [355-635] (Homo sapiens).
Respond with the bare value in nM.

Look over these answered cases.
[[record]]
compound = "NCCCN(c1nc(Nc2ccc3c(c2)S(=O)(=O)CC3)ncc1F)c1cccc2[nH]ncc12 [GTC000252A]"
observation_type = "IC50"
recorded_value = 4.94

[[record]]
compound = "COCCN(c1ccnc(Nc2cccc(-c3ocnc3C)c2)n1)c1cccc2[nH]ncc12 [GTC000323A]"
observation_type = "IC50"
recorded_value = 21.5

[[record]]
compound = "CN(c1nc(Nc2cccc(S(N)(=O)=O)c2)ncc1F)c1cccc2[nH]ncc12 [GTC000337A]"
observation_type = "IC50"
recorded_value = 22.8


Please tell me: IC50 of O=C(Cc1ccc(Nc2nccc(Nc3cccc4[nH]ncc34)n2)cc1)Nc1ccc(C(F)(F)F)cc1 [GTC000211A] , system Tyrosine-protein kinase SYK [355-635] (Homo sapiens)?
2930

###

IC50: recorded values
Target: Tyrosine-protein kinase SYK [355-635] (Homo sapiens, UniProt P43405)

Sample answers from the record:
[[record]]
compound = "COCCCN(c1nc(Nc2ccc3c(C)nn(CCCO)c3c2)ncc1F)c1cccc2[nH]ncc12 [GTC000279A]"
target_desc = "Tyrosine-protein kinase SYK [355-635] (Homo sapiens, UniProt P43405)"
observation_type = "IC50"
recorded_value = "7.52 nM"

[[record]]
compound = "COCCN(c1ccnc(Nc2cccc(S(N)(=O)=O)c2)n1)c1cccc2[nH]ncc12 [GTC000335A]"
target_desc = "Tyrosine-protein kinase SYK [355-635] (Homo sapiens, UniProt P43405)"
observation_type = "IC50"
recorded_value = "22.4 nM"

[[record]]
compound = "COCCCN(c1nc(Nc2cccc(S(C)(=O)=O)c2)ncc1F)c1cccc2[nH]ncc12 [GTC000347A]"
target_desc = "Tyrosine-protein kinase SYK [355-635] (Homo sapiens, UniProt P43405)"
observation_type = "IC50"
recorded_value = "33.3 nM"

[[record]]
compound = "NS(=O)(=O)c1cccc(Nc2nccc(N(CCCCO)c3cccc4[nH]ncc34)n2)c1 [GTC000356A]"
target_desc = "Tyrosine-protein kinase SYK [355-635] (Homo sapiens, UniProt P43405)"
observation_type = "IC50"
recorded_value = "59.3 nM"

[[record]]
compound = "O=C(Cc1ccc(Nc2nccc(Nc3cccc4[nH]ncc34)n2)cc1)Nc1ccncc1 [GTC000216A]"
target_desc = "Tyrosine-protein kinase SYK [355-635] (Homo sapiens, UniProt P43405)"
observation_type = "IC50"
recorded_value = "828 nM"


Give Tyrosine-protein kinase SYK [355-635] (Homo sapiens, UniProt P43405) IC50 for CCN(c1nc(Nc2cccc(S(N)(=O)=O)c2)ncc1Cl)c1cccc2[nH]ncc12 [GTC000355A]
56.9 nM

Return IC50 measured with Tyrosine-protein kinase SYK [355-635] (Homo sapiens, UniProt P43405) given this compound: CCN(c1nc(Nc2cc(S(N)(=O)=O)ccc2C)ncc1F)c1cccc2[nH]ncc12 [GTC000364A]
102 nM

Item O=S1(=O)CCc2ccc(Nc3ncc(F)c(N(CCO)c4cccc5[nH]ncc45)n3)cc21 [GTC000254A] with Tyrosine-protein kinase SYK [355-635] (Homo sapiens, UniProt P43405) - IC50?
4.75 nM

Reported IC50 for Tyrosine-protein kinase SYK [355-635] (Homo sapiens, UniProt P43405), given CCN(c1nc(Nc2ccc(N)c(OC(C)=O)c2)ncc1F)c1cccc2[nH]ncc12 [GTC000348A] ?
30.5 nM

Request - read-out IC50 | tested on Tyrosine-protein kinase SYK [355-635] (Homo sapiens, UniProt P43405) | compound CC(=O)NCCCCN(c1ccnc(Nc2ccc3[nH]c(=O)[nH]c3c2)n1)c1cccc2[nH]ncc12 [GTC000231A]
1.42 nM
